assay: Volume of distribution at steady state in nude mouse at 2.0 umol/kg, iv
Assay type: ADME, organism-based
condition info: in vivo, read-out: Vdss
parameter measured: Vd (L/kg)

- smiles notation: "CNC(=O)c1ccc(Nc2nccc(-c3cnc(C)n3C(C)C)n2)cc1F"
  parameter measured: "Vd"
  observed: 9.5

----------
assay: AUC in Han-Wistar rat at 20 umol/kg, po
Type: ADME, organism-based
condition info: plasma

- smiles notation: "CNC(=O)c1ccc(Nc2nccc(-c3cnc(C)n3C(C)C)n2)cc1F"
  AUC: "13.7 µM·h"

----------
assay: Half life in nude mouse at 2.0 umol/kg, iv
Type: ADME, organism-based
condition info: in vivo

- smiles notation: "CNC(=O)c1ccc(Nc2nccc(-c3cnc(C)n3C(C)C)n2)cc1F"
  half-life / h: 16.7

----------
assay: Clearance in Han-Wistar rat at 1.0 umol/kg, iv
Format: ADME, organism-based
condition info: in vivo
parameter measured: clearance (mL/min/kg)

- smiles notation: "CNC(=O)c1ccc(Nc2nccc(-c3cnc(C)n3C(C)C)n2)cc1F"
  parameter measured: "clearance"
  unit tag: "mL/min/kg"
  observed: 11.9

----------
assay: AUC in Han-Wistar rat at 1.0 umol/kg, iv
Assay type: ADME, organism-based
condition info: plasma

- smiles notation: "CNC(=O)c1ccc(Nc2nccc(-c3cnc(C)n3C(C)C)n2)cc1F"
  AUC: "1.4 µM·h"

----------
assay: Clearance in nude mouse at 2.0 umol/kg, iv
Format: ADME, organism-based
condition info: in vivo

- smiles notation: "CNC(=O)c1ccc(Nc2nccc(-c3cnc(C)n3C(C)C)n2)cc1F"
  clearance: "18.5 mL/min/kg"
